All values here come from patent US5414008A.

# Tested on: isolated rabbit aorta rings, contraction induced by angiotensin II
# TEST_NAME: Inhibition of vascular contraction induced by angiotensin II (AII) in isolated rabbit aorta rings in vitro
# DETAILS: based on 3rd = submaximal agonist concentration, read-out: IC50 against contractions induced by AII
Let's look at some molecules and their measured pIC50.
Scale explanation: pIC50 corresponds to minus log10 of a concentration expressed in moles per litre.

// solved cases for pIC50 follow
get_value(item= "CCCCc1nc(Cl)c(CO)n1Cc1ccc(/C(=C\C(=O)O)c2ccccc2)cc1" , readout=pIC50) returns 6.24

get_value(item= "CCCCc1nc(Cl)c(C=O)n1Cc1ccc(/C(=C/C(=O)O)c2ccccc2)cc1" , readout=pIC50) returns 6.44

get_value(item= CCCCc1nc(Cl)c(C=O)n1Cc1ccc(C(CC(=O)O)c2ccccc2)cc1 (stereo not shown) , readout=pIC50) returns 6.19

We now examine a further molecule.
get_value(item= CCCCc1nc(Cl)c(CO)n1Cc1ccc(C(=CC(=O)NC(CO)c2ccccc2)c2ccccc2)cc1 (stereo not shown) , readout=pIC50) returns 6.44

----------
# TESTED_SYSTEM: angiotensin II receptor (Bos taurus)
# Construct: Bovine adrenal gland cortices (AGC), which have been freshly removed and carefully freed from gland medulla; from tissue; host or cells: bovine adrenal gland cortex, partially purified membrane fractions
# Sequence (P25104 whole entry): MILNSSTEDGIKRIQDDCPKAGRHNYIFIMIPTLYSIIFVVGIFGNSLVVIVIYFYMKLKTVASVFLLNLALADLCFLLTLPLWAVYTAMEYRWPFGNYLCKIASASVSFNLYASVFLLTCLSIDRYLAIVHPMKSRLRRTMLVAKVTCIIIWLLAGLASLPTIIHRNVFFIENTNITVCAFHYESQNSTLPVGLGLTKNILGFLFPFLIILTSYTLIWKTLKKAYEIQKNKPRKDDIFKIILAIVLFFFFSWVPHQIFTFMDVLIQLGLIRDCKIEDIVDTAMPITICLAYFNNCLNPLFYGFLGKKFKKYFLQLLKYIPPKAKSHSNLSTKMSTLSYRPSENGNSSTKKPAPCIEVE
# TEST_NAME: Angiotensin II receptor binding (3H-angiotensin II) in membrane fractions of bovine adrenal gland cortex
# DETAILS: bovine adrenal gland cortex membranes, 3H-angiotensin II 3-5 nM, 60 min, room temperature
ENDPOINT_LABEL: pKi
Scale explanation: pKi corresponds to minus log10 of a concentration expressed in moles per litre.

get_value(item= CCCCc1nc(Cl)c(C=O)n1Cc1ccc(C(CC(=O)O)C2CCCC2)cc1 (centres unmarked) , readout=pKi) returns 6.72

We now examine a further molecule.
get_value(item= "CCCCc1nc(Cl)c(CO)n1Cc1ccc(/C(=C\C(=O)O)c2ccccc2)cc1" , readout=pKi) returns 6.47
